Reference source: the supplement of paper PMC10567573

Reported values of protein stability index for individual entries
# Experimental Details: protein stability index of a GFP-peptide fusion (GPS, HEK-293T) (PSI 1-6); higher = more stable;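 also: 24-mer peptide tiles fused after GFP, lentivirally expressed, FACS-sorted into six equal bins by GFP/DsRed ratio, decoded by Illumina sequencing, PSI is the read-weighted mean bin number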
# Settings: treatment: DMSO; c terminus: a fixed tail appended
In your answer, state the number alone without any accompanying words.

Chain Sequence: TSVGMSFVAGGISGTVAAVLTLPF [SLC25A39]
Measured Parameter: protein stability index
Readout Value: 2.95

Documented protein stability index of EVVPALEPTETLLSEKEINAREES [BCL2L13] : 5.6

Documented protein stability index of LYFSIHRYEQGRFWPHLKASNWST [HDAC6] : 2.77

Documented protein stability index of NAANRTGYVPSNYVERKNSLKKGS [NCK2] : 4.33

Documented protein stability index of IAQDTCTTTDHSSNPGPVPGSSSG [SPAG8] : 5.23

Documented protein stability index of PPVVAHYDMSDTNSDPEVVNVDNL [C18orf25] : 5.43

Documented protein stability index of GKDCFLELAPDFVGDILWEHLEIL [ETS1] : 2.42

====

# Experimental Details: protein stability index of a GFP-peptide fusion (GPS, HEK-293T) (PSI 1-6); higher = more stable
# Settings: treatment: MLN4924 1 uM, 8 h; c terminus: a fixed tail appended
Classification field: 1 (yes) = protein stability index at or over 4; 0 (no) = protein stability index under 4.

// below: answered sequences
Chain Sequence: CGADVNVRDSDDNSPLHIAALNNH [FEM1C]
Group: 0 (no)
//
Chain Sequence: LLLDCGAEVNAVDNEGNSALHIIV [FEM1B]
Group: 0 (no)
//
Chain Sequence: MPDYMILQELKKLKNSNYESIQQT [PPTC7]
Group: 0 (no)
//
Chain Sequence: RNLARSQSVKMKDKLKIDLLPDGR [TAF7L]
Group: 1 (yes)
//
Chain Sequence: MVGLILGPFGVNHGVELHSDVIEY [PCMTD2]
Group: 0 (no)

Qu. Decide: is the reported value of protein stability index for SERPLEDLRLRLDHLGWVARGTGS [RTN2] equal to or greater than 4?
Ans. 0 (no)

Qu. Decide: is the reported value of protein stability index for IQEQPGQEQVAGGEAQPGLPQEDP [FEM1A] equal to or greater than 4?
Ans. 1 (yes)

Qu. Decide: is the reported value of protein stability index for LLASVPSNPNGNGGFMGYSAENIP [CRY1] equal to or greater than 4?
Ans. 0 (no)

Qu. Decide: is the reported value of protein stability index for EWIRFDQSNVLCSIFGICMVFSGL [PTGFR] equal to or greater than 4?
Ans. 0 (no)

Qu. Decide: is the reported value of protein stability index for AEFEKLSDQVKISEEALRADGFGD [SAT2] equal to or greater than 4?
Ans. 1 (yes)

====

# Experimental Details: protein stability index of a GFP-peptide fusion (GPS, HEK-293T) (PSI 1-6); higher = more stable
# Settings: treatment: MLN4924 1 uM, 8 h; c terminus: a fixed tail appended
Reported values of protein stability index for individual entries
In your answer, state the number alone without any accompanying words.

Chain Sequence: RRLFGPVDSEQLRRDCDALMAGCI [CDKN1A]
Measured Parameter: protein stability index
Readout Value: 2.74

Switching to the query record.
Documented protein stability index of TLVMFQSLGERMNTFVRYLLKRIK [KCNK9] : 2.73

====

# Experimental Details: protein stability index of a GFP-peptide fusion (GPS, HEK-293T) (PSI 1-6); higher = more stable
# Settings: treatment: DMSO; c terminus: a fixed tail appended
Classification field: yes (1) = protein stability index at or over 3; no (0) = protein stability index under 3.

Chain Sequence: HTKPSQAPAVEVAPAGASYNPSFE [NOP53]
Group: yes (1)
//
Chain Sequence: PSQDERMRSPQNLHSQEDDDSSSE [NOL4L]
Group: yes (1)
//
Chain Sequence: LLLHRGAGKEAMTSDGYTALHLAA [RIPK4]
Group: no (0)
//
Chain Sequence: TPHVYWAQRHRELYLRVELSDVQN [HACD3]
Group: no (0)
//
Chain Sequence: AGLAELGHRLAQKLQGLENWGQDP [PBXIP1]
Group: no (0)

Qu. Decide: is the reported value of protein stability index for TQTSEECNGILTEKMEEEEQTCDP [ZNF396] equal to or greater than 3?
Ans. yes (1)

Qu. Decide: is the reported value of protein stability index for TKLSAQSAQYSQQLQAARNEYLLN [FCHSD1] equal to or greater than 3?
Ans. yes (1)

Qu. Decide: is the reported value of protein stability index for VSSLISEKTNGATPLLMAARYGHL [FEM1C] equal to or greater than 3?
Ans. no (0)

Qu. Decide: is the reported value of protein stability index for MVSNPVHGLPFLPGTSFKDSTKTA [EFHC1] equal to or greater than 3?
Ans. yes (1)

====

# Experimental Details: protein stability index of a GFP-peptide fusion (GPS, HEK-293T) (PSI 1-6); higher = more stable
# Settings: treatment: DMSO; c terminus: a fixed tail appended
Measured Parameter: protein stability index
In your answer, state the number alone without any accompanying words.

The cases that follow already have their protein stability index on record.
Chain Sequence: DPKEDVFQQNHLFWLQNSSPSSDR [PHTF1]
Readout Value: 4.71
--
Chain Sequence: CAVLLSAVQAQAGWLQHDFGHLSV [FADS1]
Readout Value: 3.25

Documented protein stability index of SRQIPAPQGAVLVQREKDLPNYNW [KISS1] : 3.78

Documented protein stability index of GEKMVAAKVKGEKLDKKLKKMEQN [ATF4] : 5

Documented protein stability index of DVEGAESQLDEDEHGLHTKYIHRM [TRAF3IP2] : 5.09

Documented protein stability index of FRKEIKSKSADNQEYFERHRWPPV [RHOBTB1] : 3.45

Documented protein stability index of PPSYGGSSRYDDYSSSRDGYGGSR [RBMX] : 4.61

====

# Experimental Details: protein stability index of a GFP-peptide fusion (GPS, HEK-293T) (PSI 1-6); higher = more stable
# Settings: treatment: MLN4924 1 uM, 8 h; c terminus: a fixed tail appended
Each record's class is read off its protein stability index using these ranges: bottom = under 3, middle = from 3 up to 4, top = 4 and over

// below: answered sequences
Chain Sequence: HLVQHQHPNSRKSSAGGAKAGQPE [ZNF8]
Group: top
--
Chain Sequence: QHECVNTDDSYSCHCLKGFTLNPD [MATN2]
Group: top
--
Chain Sequence: VPQPARMPYISDKHPRQTLEVINL [KLHL20]
Group: middle

Qu. The entry to classify is SLENTLTESEARYSSQLSQVQSLI [KRT33B] ; which class holds it?
Ans. middle

====

Reported values of protein stability index for individual entries
# Experimental Details: protein stability index of a GFP-peptide fusion (GPS, HEK-293T) (PSI 1-6); higher = more stable
# Settings: treatment: DMSO; c terminus: a fixed tail appended
In your answer, state the number alone without any accompanying words.

The cases that follow already have their protein stability index on record.
Chain Sequence: TEVLRNMGFAAKAMKSVHENMDLN [CHMP4C]
protein stability index: 3.3
--
Chain Sequence: FSKVKTSLGLDHCHSFISGTAPLN [ACSBG2]
protein stability index: 2.52
--
Chain Sequence: MQVNPISKRMGPMTVVRMDASVQP [RHOBTB1]
protein stability index: 3.48
--
Chain Sequence: SFVTGSHVGELIIWDALDWTMQAY [WDR41]
protein stability index: 2.9
--
Chain Sequence: QLLILLQNCTDEGEREAIQKSVTR [POP5]
protein stability index: 3.91

Documented protein stability index of RRVHLTEDQWGKGTLTPRMTTDFD [TRIM9] : 3.92

Documented protein stability index of LRCLDRDEPSKPTLALEYTYGRRA [DYNC2LI1] : 3.45

====

# Experimental Details: protein stability index of a GFP-peptide fusion (GPS, HEK-293T) (PSI 1-6); higher = more stable
# Settings: treatment: MLN4924 1 uM, 8 h; c terminus: a fixed tail appended
Classification field: t = protein stability index at or over 3; f = protein stability index under 3.

Chain Sequence: KTSQLSYYYMGFYIHSCPKMKYKG [ATE1]
Group: f

Chain Sequence: KALNTFIDDLFAFVIKMPVMYRIG [CLPTM1]
Group: f

Qu. Decide: is the reported value of protein stability index for KKKRPPQPPEESQPPQSQAQVPPA [PLK2] equal to or greater than 3?
Ans. t

Qu. Decide: is the reported value of protein stability index for AESRGHSKGWGRNYASIIRRDCMW [MYCL] equal to or greater than 3?
Ans. f

Qu. Decide: is the reported value of protein stability index for LQLSEFLCEEFRNRNQRIVQLIQD [CPN1] equal to or greater than 3?
Ans. f

Qu. Decide: is the reported value of protein stability index for KGLSGGFGSRSLYSLGGVRSLNVA [KRT71] equal to or greater than 3?
Ans. f
